- assay.comment: Caco-2 cell monolayer bidirectional transport study
- Type: in vitro ADME
- run.conditions: human, Caco-2, pH 7.4
measurement.label: efflux ratio at 2 h, 100 µM
Numbers only.

Query block: Name the reported efflux ratio at 2 h, 100 µM value associated with the molecule CC(C)NCC(O)COc1cccc2ccccc12 (stereo not shown) [Propranolol]
Result block: 0.51

###

- assay.comment: Caco-2 cell monolayer bidirectional transport study
- Assay type: in vitro ADME
- run.conditions: human, Caco-2, pH 7.4
measurement.label: Papp A→B at 2 h, 100 µM (×10⁻⁶ cm/s)
Answers are plain numbers, in ×10⁻⁶ cm/s.

Query block: Request the reported Papp A→B at 2 h, 100 µM associated with CC(C)NCC(O)COc1cccc2ccccc12 (stereo not shown) [Propranolol]
Result block: 41.6
